For each of the compounds below, state its IC50.
- study.target: PI3Kδ (p110δ/p85α) Recombinant Human Protein (Homo sapiens (Human), UniProt O00329)
- Sequence (O00329 whole entry): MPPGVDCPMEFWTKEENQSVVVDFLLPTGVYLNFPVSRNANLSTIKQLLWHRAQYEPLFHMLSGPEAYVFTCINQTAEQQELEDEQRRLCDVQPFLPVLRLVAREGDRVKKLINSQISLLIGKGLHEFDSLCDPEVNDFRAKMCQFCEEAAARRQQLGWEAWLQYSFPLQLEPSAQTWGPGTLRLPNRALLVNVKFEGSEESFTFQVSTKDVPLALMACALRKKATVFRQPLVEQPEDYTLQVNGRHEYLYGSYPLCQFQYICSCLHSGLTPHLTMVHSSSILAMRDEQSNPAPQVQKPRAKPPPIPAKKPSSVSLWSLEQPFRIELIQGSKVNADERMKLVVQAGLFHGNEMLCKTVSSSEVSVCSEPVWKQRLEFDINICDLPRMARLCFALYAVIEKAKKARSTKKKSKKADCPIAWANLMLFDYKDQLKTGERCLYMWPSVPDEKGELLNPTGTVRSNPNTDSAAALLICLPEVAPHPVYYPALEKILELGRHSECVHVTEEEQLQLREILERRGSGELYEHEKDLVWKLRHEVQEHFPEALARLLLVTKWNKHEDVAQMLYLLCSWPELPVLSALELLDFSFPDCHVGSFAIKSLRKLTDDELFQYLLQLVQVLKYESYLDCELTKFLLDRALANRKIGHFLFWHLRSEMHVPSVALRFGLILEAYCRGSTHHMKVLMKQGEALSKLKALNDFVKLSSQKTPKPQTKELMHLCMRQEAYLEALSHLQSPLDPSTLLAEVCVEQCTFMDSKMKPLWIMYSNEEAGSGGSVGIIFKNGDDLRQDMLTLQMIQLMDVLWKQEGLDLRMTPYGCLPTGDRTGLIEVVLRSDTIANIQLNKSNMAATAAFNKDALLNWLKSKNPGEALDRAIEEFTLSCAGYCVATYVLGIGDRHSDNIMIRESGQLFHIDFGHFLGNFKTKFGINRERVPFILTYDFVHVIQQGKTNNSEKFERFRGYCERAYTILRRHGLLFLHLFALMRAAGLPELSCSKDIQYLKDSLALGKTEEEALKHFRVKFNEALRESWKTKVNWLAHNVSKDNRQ
- Sequence (P27986 whole entry partner): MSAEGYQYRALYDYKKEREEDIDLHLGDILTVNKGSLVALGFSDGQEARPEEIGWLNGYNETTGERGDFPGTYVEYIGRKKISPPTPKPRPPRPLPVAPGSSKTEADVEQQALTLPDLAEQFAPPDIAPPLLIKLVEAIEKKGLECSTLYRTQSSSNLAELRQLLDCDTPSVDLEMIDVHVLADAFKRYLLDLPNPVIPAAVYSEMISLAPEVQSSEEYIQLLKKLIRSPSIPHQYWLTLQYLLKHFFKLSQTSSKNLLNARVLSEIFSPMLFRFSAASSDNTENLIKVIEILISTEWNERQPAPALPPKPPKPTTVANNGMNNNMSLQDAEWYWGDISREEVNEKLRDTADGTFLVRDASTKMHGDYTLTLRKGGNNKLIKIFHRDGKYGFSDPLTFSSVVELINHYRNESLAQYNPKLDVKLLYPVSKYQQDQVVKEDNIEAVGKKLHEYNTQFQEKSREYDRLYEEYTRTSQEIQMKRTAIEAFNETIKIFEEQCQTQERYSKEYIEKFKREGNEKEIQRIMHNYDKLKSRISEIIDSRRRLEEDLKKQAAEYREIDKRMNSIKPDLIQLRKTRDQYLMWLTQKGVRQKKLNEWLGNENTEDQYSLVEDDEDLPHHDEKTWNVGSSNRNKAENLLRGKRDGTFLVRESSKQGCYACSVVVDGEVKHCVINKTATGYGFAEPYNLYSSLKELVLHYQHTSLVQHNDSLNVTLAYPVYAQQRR
- assay: PI3Kδ Scintillation Proximity Assay
- assay.conditions: read-out: PI3K-delta SPA IC50
Structures can show the parent of a compound that is named as a salt.

## Task Supply reported IC50 belonging to this compound: CCOC(=O)c1nc(-c2cc(-c3cncc(OC)c3)ccn2)[nH]c1C(F)(F)F [Example 80]
## Result > 500 nM

## Task Let me know recorded IC50 for COC(=O)c1nc(-c2cc(-c3cncc(N4CCOCC4)c3)ccn2)[nH]c1C [Example 125] , thanks.
## Result ≤ 50 nM

## Task Please look at this compound and report its IC50: Cc1nc(-c2cc(-c3cnn(Cc4ccc(Cl)cc4)c3)ccn2)[nH]c1C [Example 294, Trifluoroacetate Salt]
## Result > 500 nM

## Task Using known records, supply IC50 for Cc1[nH]c(-c2cc(-c3cncc(N4CCOCC4)c3)ccn2)nc1CNC1CCCC1 [Example 284]
## Result ≤ 100 nM

## Task Note down IC50 recorded for Cc1[nH]c(-c2cc(-c3cncc(S(C)(=O)=O)c3)ccn2)nc1C(=O)O [Example 119, trifluoroacetate salt]
## Result > 500 nM

## Task Tell us which IC50 value is on record for c1ccc(-c2cnc(-c3cc(-c4cnn(C5CCOCC5)c4)ccn3)[nH]2)cc1 [Example 47, trifluoroacetate salt]
## Result ≤ 50 nM

## Task Give a short answer stating reported IC50 for COC(=O)c1cccc(Cn2cc(-c3ccnc(-c4ncc(-c5ccccc5)[nH]4)c3)cn2)c1 [Example 31, trifluoroacetate salt] .
## Result > 500 nM

## Task Name the recorded IC50 of the item CCn1cc(-c2ccnc(-c3ncc(-c4ccccc4)[nH]3)c2)cn1 [Example 10, trifluoroacetate salt] in your answer.
## Result ≤ 500 nM

## Task Using known records, supply IC50 for Cc1nc(-c2cc(-c3cncc(C(=O)N(C)c4ccccc4)c3)ccn2)[nH]c1C [Example 194, trifluoroacetate salt]
## Result ≤ 50 nM

====

- study.target: PI3Kγ (p110γ) Recombinant Human Protein (Homo sapiens (Human))
- Sequence (P48736 whole entry): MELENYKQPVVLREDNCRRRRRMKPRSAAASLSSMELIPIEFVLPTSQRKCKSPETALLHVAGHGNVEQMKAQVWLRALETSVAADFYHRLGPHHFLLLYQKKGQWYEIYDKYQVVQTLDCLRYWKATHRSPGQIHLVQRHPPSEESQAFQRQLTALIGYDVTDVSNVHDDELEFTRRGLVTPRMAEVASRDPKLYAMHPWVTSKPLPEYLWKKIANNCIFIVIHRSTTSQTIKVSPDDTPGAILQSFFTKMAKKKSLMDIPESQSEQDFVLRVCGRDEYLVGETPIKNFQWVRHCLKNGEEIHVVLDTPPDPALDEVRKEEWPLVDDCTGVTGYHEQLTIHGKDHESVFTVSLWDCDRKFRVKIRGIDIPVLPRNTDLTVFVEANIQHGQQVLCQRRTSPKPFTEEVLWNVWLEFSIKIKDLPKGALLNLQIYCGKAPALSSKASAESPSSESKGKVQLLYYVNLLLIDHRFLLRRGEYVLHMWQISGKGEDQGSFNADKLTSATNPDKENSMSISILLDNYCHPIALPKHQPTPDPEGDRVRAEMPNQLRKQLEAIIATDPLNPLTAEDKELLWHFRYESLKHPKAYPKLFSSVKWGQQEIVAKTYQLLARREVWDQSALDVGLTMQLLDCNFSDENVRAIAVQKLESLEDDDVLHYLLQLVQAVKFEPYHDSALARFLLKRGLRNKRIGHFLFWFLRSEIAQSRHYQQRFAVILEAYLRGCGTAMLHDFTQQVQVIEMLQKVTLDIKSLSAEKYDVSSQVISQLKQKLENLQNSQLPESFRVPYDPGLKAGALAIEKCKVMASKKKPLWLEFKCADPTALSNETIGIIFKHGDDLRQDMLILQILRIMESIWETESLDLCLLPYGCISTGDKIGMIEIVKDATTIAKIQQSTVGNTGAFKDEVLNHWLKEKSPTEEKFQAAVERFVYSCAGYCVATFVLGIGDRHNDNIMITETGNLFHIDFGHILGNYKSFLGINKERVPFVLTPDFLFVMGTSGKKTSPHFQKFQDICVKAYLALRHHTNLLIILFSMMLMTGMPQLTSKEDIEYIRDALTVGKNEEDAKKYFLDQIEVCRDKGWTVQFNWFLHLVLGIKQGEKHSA
- assay: PI3K-γ Scintillation Proximity Assay
- assay.conditions: read-out: PI3K-gamma SPA IC50
pIC50: −log10 of the molar value. Where a name gives a salt, the structure may show the parent alone.
readout.kind: pIC50

## Task Quickly give me recorded pIC50 for c1ccc(-c2cnc(-c3cc(-c4cncc(NC5CCOCC5)c4)ccn3)[nH]2)cc1 [Example 142, trifluoroacetate salt]
## Result ≥ 7.30

## Task For the compound CN1CCC(Nc2cncc(-c3ccnc(-c4ncc(-c5ccccc5)[nH]4)c3)c2)CC1 [Example 143, trifluoroacetate salt] , give its measured pIC50 value.
## Result ≥ 7.00

## Task Respond only with pIC50 recorded for Cc1cnc(-c2cc(-c3cncc(S(C)(=O)=O)c3)ccn2)[nH]1 [Example 107, trifluoroacetate salt]
## Result ≥ 7.00

## Task Please indicate pIC50 recorded for Cc1nc(-c2cc(-c3cncc(C(=O)N4CCC(Cc5ccccc5)CC4)c3)ccn2)[nH]c1C [Example 189, trifluoroacetate salt]
## Result ≥ 7.00

## Task Using known records, supply pIC50 for COc1cncc(-c2ccnc(-c3ncc(-c4ccc(S(=O)(=O)N(C)C)cc4)[nH]3)c2)c1 [Example 83, trifluoroacetate salt]
## Result ≥ 7.30

## Task Name the recorded pIC50 of the compound listed here: COC(=O)c1ccc(Cn2cc(-c3ccnc(-c4ncc(-c5ccccc5)[nH]4)c3)cn2)cc1 [Example 32, trifluoroacetate salt]
## Result ≥ 6.30

## Task Please report pIC50 for the following compound: Cc1n[nH]cc1-c1ccnc(-c2ncc(-c3ccccc3)[nH]2)c1 [Example 9, trifluoroacetate salt]
## Result ≥ 7.00

The values you see were collected from patent US11352340B2.
